Measured values drawn from the CombiSolv-Exp solvation set (Vermeire and Green 2021) for this set.

test: solvent given as SMILES; settings: in Cc1cccc(C)c1
We label by threshold. Values of solvation free energy, 298 K strictly beneath -8 kcal/mol are Yes. Values of -8 kcal/mol and up are No.

Here are 2 molecules together with their reported answers.
| smi | qualitative.label |
| --- | --- |
| FC(F)(Cl)C(F)(Cl)Cl | No |
| Oc1ccccc1Br | No |

Confirm or reject: solvation free energy, 298 K of "CC(C)O" lies strictly below -8 kcal/mol
No

Same lookup for "OCCCl" , please.
No

Same lookup for "O=[N+]([O-])c1ccccc1O" , please.
No

----------
assay: solvent given as SMILES; conditions: in CCC(C)(C)O
Please provide measured solvation free energy, 298 K for the entries that follow.
One number for each entry, in kcal/mol.

Could you report solvation free energy, 298 K for every entry in the following list?
1. c1ccc2c(c1)ccc1ccccc12
2. C(=Cc1ccccc1)c1ccccc1
3. CCCC

-9.84
-9.84
-2.16

Could you report solvation free energy, 298 K for every entry in the following list?
1. CCCl
2. CC(C)C
3. C=CC=C
4. CCC

-2.5
-1.92
-2.16
-1.42
